Tested on: mussel
EXPERIMENTAL DETAILS: Mussel plaque adhesion to coated plates (Instron tensile pull of individual plaques)
Type: in vivo
ASSAY CONDITIONS: 25% additive in primer; Table 4C, recent data with variations versus Table 4A
ASSAY READOUT: Adhesion (kPa)
Kindly provide the numeric value in kPa only, without the unit symbol.

// known answers, use as guide
{"columns": ["COMPOUND", "UNIT TEXT", "Adhesion"],
 "data": [
  ["CC(C)(C)c1cccc(O)c1C(C)(C)C", "kPa", 34.11],
  ["Cc1cc(C(C)(C)C)c(C)c(C(C)(C)C)c1 [DBT, reference compound]", "kPa", 47.07],
  ["COc1ccccc1", "kPa", 33.53],
  ["Cc1cc(C(C)(C)C)c(O)c(C(C)(C)C)c1 [BHT, butylated hydroxytoluene]", "kPa", 37.08]
]}

Would you kindly look at the next entry?
Q) # get_value(readout= Adhesion, system= mussel) for CCOc1ccc2c(c1)C(C)=CC(C)(C)N2
A) 21.23

All figures here come from patent US20140076194A1.
